Reference source: patent US8946216B2

tgt: unphosphorylated Mouse ERK2 protein (inactive ERK2) (Mus musculus, UniProt P63085)
Sequence (P63085 whole entry): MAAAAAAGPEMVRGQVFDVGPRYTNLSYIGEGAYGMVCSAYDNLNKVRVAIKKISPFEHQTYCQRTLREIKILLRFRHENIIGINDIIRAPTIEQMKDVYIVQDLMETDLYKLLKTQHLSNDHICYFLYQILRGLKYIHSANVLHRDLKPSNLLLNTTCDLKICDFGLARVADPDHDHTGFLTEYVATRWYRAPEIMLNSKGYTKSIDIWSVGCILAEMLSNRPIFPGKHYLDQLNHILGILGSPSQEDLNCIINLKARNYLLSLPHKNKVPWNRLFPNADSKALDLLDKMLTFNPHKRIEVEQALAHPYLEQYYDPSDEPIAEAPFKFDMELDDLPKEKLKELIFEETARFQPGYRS
method.notes: Coupled ERK2 (cERK) assay, coupled MEK1/ERK2 IMAP
recorded.conditions: 30 min preincubation with inactive ERK2, then activation by human MEK1; 30 μM ATP; fluorescence polarization; read-out: cERK2 IC50
Source text: • 1. M. W. Pantoliana, E. C. Petrella, J. D. Kwasnoski, V. S. Lobanov, J. Myslik, E. Graf, T. Carver, E. Asel, B. A. Springer, P. Lane, F. R. Salemme, High-density miniaturized thermal shift assays as a general strategy for drug discovery, J. Biomol. Screen 6 (2001) 429-440 • 2. […] Mayhood, T. W., Windsor, W. T., Ligand binding affinity determined by temperature-dependent circular dichroism: Cyclin-dependent kinase 2 inhibitors, Analytical Biochemistry 345 (2005) 187-197 Coupled ERK2 (cERK) Assay: […]
pIC50: −log10 of the molar value.
Examples of compounds with documented pIC50 follow.
endpoint.name: pIC50

# compound, measured
data = [
    ("O=C(Nc1ccc2[nH]nc(-c3ccncc3)c2c1)C1CN(Cc2cccnc2)CCO1 (stereo not shown)", 5.66),
    ("O=C(Nc1ccc2[nH]nc(-c3ccncc3)c2c1)C1CN(Cc2ccc(F)c(Cl)c2)CCO1 (stereo not shown)", 5.75),
    ("O=C(Nc1ccc2[nH]nc(-c3ccncc3)c2c1)C1CN(Cc2cc(Cl)cc(Cl)c2)CCO1 (stereo not shown)", 5.05),
    ("O=C(Nc1ccc2[nH]nc(-c3ccncc3)c2c1)C1CN(Cc2c(F)ccc(F)c2Cl)CCO1 (stereo not shown)", 6.04),
]
